Assay: Crystallographic stability (TGA, DSC, IR after storage)
Format: physicochemical
Settings: two weeks, RT/75% RH
recorded.metric: TGA <100° C.
Give your result as the value with the unit written after it.

Lookup result for CNCC1CC2c3ccccc3Cc3ccc(F)cc3C2O1.O=C(O)C(O)c1ccccc1 (single isomer, unassigned) [Compound 1] ; measured TGA <100° C.: 0.1%

---

Test: Crystallographic stability (TGA, DSC, IR after storage)
Format: physicochemical
Conditions: two weeks, 25° C./60% RH
recorded.metric: TGA <100° C. (%)
Supply the numeric figure in %, leaving out any unit text.

Lookup result for CNCC1CC2c3ccccc3Cc3ccc(F)cc3C2O1.O=C(O)C(O)c1ccccc1 (single isomer, unassigned) ; measured TGA <100° C.: 0.1
